As shown below, each of these compounds has a reported IC50 value.
test details: Competitive binding affinity to Pseudomonas aeruginosa WspR after 5 mins in presence of [32P]-c-di-GMP
measurement label: IC50 (µM)

INSERT INTO measurements (line_notation, measurement_label, value_modifier, recorded_value) VALUES
  ('Nc1nc2c(ncn2[C@@H]2O[C@@H]3COP(=O)(O)O[C@H]4[C@@H](O)[C@H](n5cnc6c(=O)[nH]c(N)nc65)O[C@@H]4COP(=O)(O)O[C@H]3[C@H]2O)c(=O)[nH]1', 'IC50', '=', 48.9),
  ('CO[C@@H]1[C@@H]2OP(=O)(O)OC[C@H]3O[C@@H](n4cnc5c(=O)[nH]c(N)nc54)[C@H](OC)[C@@H]3OP(=O)(O)OC[C@H]2O[C@H]1n1cnc2c(=O)[nH]c(N)nc21', 'IC50', '>', 100),
  ('Nc1nc2c(ncn2[C@@H]2O[C@@H]3COP(=O)(O)O[C@H]4[C@@H](F)[C@H](n5cnc6c(=O)[nH]c(N)nc65)O[C@@H]4COP(=O)(O)O[C@H]3[C@H]2F)c(=O)[nH]1', 'IC50', '=', 11),
  ('Nc1nc2c(ncn2[C@H]2C[C@@H]3OP(=O)(O)OC[C@H]4O[C@@H](n5cnc6c(=O)[nH]c(N)nc65)C[C@@H]4OP(=O)(O)OC[C@H]3O2)c(=O)[nH]1', 'IC50', '>', 100);
